From: patent US20180355059A1

Molecular target: T1, recombinant human PCSK9-His protein (Immunogen A) (human, UniProt Q8NBP7 31-692, limits assumed, biotinylated in the ELISA assays)
T1 construct: also called hPCSK9-His; His-tagged hPCSK9; not shown: His tag
Assay: BLI, Octet Red 96; antibody on AHC sensor
Consider the following binders and their measured pKd readings.
When answering, recall that pKd equals minus log10 of the concentration in mol/L, and write that number alone.

Example cases with answers are listed next.
>  <binder>
139G1C5, fully human anti-PCSK9 antibody (antibody, human IgG1, V domains shown) VH: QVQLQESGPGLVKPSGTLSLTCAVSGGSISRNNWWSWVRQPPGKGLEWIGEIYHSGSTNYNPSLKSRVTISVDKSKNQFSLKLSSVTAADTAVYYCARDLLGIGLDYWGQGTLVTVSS VL: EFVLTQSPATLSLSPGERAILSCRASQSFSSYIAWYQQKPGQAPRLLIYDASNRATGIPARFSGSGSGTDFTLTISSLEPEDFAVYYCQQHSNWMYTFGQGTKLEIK

>  <pKd>
9.20

$$$$
>  <binder>
74C10A8, fully human anti-PCSK9 antibody (antibody, human IgG1, V domains shown) VH: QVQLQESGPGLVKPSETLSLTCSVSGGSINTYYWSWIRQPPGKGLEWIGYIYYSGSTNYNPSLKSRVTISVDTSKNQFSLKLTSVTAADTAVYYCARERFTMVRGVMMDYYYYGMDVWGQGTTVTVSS VL: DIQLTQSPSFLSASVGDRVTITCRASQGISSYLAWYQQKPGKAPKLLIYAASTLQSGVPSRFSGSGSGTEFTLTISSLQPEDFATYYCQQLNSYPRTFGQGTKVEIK

>  <pKd>
7.84

$$$$
>  <binder>
76A1B11, fully human anti-PCSK9 antibody (antibody, human IgG1, V domains shown) VH: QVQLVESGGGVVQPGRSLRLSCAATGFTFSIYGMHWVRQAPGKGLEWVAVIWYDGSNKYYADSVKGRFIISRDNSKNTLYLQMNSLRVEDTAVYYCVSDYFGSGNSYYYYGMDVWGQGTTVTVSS VL: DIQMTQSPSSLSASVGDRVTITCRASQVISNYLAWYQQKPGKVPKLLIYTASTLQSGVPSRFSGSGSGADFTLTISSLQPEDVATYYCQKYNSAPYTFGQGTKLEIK

>  <pKd>
7.92

$$$$
>  <binder>
103C11E8, fully human anti-PCSK9 antibody (antibody, human IgG1, V domains shown) VH: QVQLQESGPGLVKPSGTLSLTCAVSGGSISSSNWWSWVRQPPGKGLEWIGEIYHSGSTNYNPSLKSRVTISVDKSKNQFSLKLSSVTAADTAVYYCARGIAVAGTDVMDAWGQGASVTVSS VL: EIVLTQSPATLSLSPGERATLSCRASQSVSSYLVWYQQKSGQAPRLLIYGTSNRATGIPARFSGSGSGTDFTLTISSLEPEDFALYYCQQRGNWMYTFGQGTKLEIK

>  <pKd>
8.66

$$$$

Inquiry: # return recorded pKd for input 152G2F7, fully human anti-PCSK9 antibody (antibody, human IgG1, V domains shown) VH: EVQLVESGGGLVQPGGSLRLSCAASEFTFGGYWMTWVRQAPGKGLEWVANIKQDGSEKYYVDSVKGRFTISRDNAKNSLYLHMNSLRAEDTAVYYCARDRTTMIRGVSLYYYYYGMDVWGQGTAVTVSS VL: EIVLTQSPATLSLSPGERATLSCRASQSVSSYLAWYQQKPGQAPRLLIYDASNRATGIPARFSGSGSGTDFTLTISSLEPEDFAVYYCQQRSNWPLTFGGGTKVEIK
Reply text: 8.57
